Target: T1, Cdc25, P04821
T1 sequence (P04821 50-136, looked up): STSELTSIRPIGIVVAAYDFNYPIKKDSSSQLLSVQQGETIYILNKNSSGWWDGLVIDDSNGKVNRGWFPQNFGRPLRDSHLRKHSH
Experiment: SPOT array
Settings: median of control spots 969
Lab note - cut at 20 for SPOT intensity: class 1 if strictly below, class 0 if not.

Look over these answered cases.
binder: RRGPAPPPPPRASRP
group: class 1

binder: ALFRLSFFFPLDPAY
group: class 0

binder: VQQDSLPKLPFRSWG
group: class 1

binder: NFKRLLPRDPSEKSS
group: class 0

binder: NVLRKILEIPLHSFS
group: class 0

binder: FSRRQSMDIPSKNRN
group: class 1

binder: AERNYAPRLPRRETS
group: class 1

binder: GPPPPLPPPLFPSSS
group: class 1

binder: NTMKKRPAPPSLPSL
group: class 0

binder: LPPPPPPPPPPPLPQ
group: class 1

Here's the next entry for you.
Task: Lab note: SPOT intensity threshold 20. Does this binder come in strictly under it? `NLKKRPPTAPQRKIS`
Output: class 0
